Tested on: A2780/Adr
TEST_METHOD_NOTES: FMCA, A2780/Adr doxorubicin-resistant ovarian cancer
Type: cell-based
MEASUREMENT_SETUP: read-out: EC50 (μM) in various cancer cell lines: A2780/Adr
EXPERIMENTAL_ENDPOINT: EC50 (µM)

I: Cc1cc2cc(Nc3ccnc(NCc4ccc5[nH]ccc5c4)n3)ccc2[nH]1 [Example 24]
II: Cc1cc(NCc2ccc3[nH]ncc3c2)nc(Nc2cccc3[nH]ccc23)n1 [Example 37]
III: c1cc(Nc2nccc(NCc3ccc4[nH]cnc4c3)n2)c2cc[nH]c2c1 [Example 19]
Ask: Ranking criterion: EC50, increasing numeric value. Items: as listed above. List each label, following the requested order.
Result: I, II, III
(I: 0.6 µM, II: 1.71 µM, III: 12.6 µM)

###

Tested on: CCRF-CEM cancer cells - leukaemia
TEST_METHOD_NOTES: Fluorometric Microculture Cytotoxicity Assay (FMCA), CCRF-CEM
Assay type: cell-based
MEASUREMENT_SETUP: Homo sapiens, 72 h incubation
Reported EC50 is given for each of the following compounds.
Response body: numeric value in µM, unit text excluded.

These solved cases illustrate the format of a correct answer.
>>> result_number("c1cc(NCc2ccc3[nH]ccc3c2)nc(Nc2ccc3[nH]ncc3c2)n1 [Example 4]")
4.07
>>> result_number("Oc1ccc2[nH]cc(CCNc3ccnc(NCc4ccc5[nH]ccc5c4)n3)c2c1 [Example 26]")
7.01
>>> result_number("Cc1cc2cc(Nc3nccc(NCc4ccc5[nH]ccc5c4)n3)ccc2[nH]1 [Example 3]")
4.25

Recorded EC50 (compound c1cc(Nc2nccc(NCc3ccc4[nH]ncc4c3)n2)c2cc[nH]c2c1 [Example 18] ): 0.71

###

Each entry below carries its reported pEC50.
System: CCRF-CEM cancer cells - leukaemia
TEST_METHOD_NOTES: Fluorometric Microculture Cytotoxicity Assay (FMCA), CCRF-CEM
Assay type: cell-based
MEASUREMENT_SETUP: Homo sapiens, 72 h incubation
pEC50 is a log-scale quantity: -log10 of the concentration expressed in molar.

>>> result_number("CCN(CC)CCNC(=O)c1c(C)[nH]c(/C=C2\\C(=O)Nc3ccc(F)cc32)c1C [Ref. 2, sunitinib, reference compound]")
4.85

Per the reported CCRF-CEM cancer cells - leukaemia data, `Nc1cnc(Nc2cccc3[nH]ccc23)nc1NCc1ccc2[nH]ccc2c1` has pEC50 of 5.36
